biological target: Alkaline phosphatase, placental type (Homo sapiens); assay: PLAP enzyme inhibitors, biochemical, luminescence, HTS (AID 690); settings: purified PLAP, luminescent substrate; at 20 µM; hits give high values
About 80 (0.08%) of roughly 96,000 compounds were called active. A selection follows. Entries with a potency or affinity are not part of this list.
# inhibition listing for each entry below
Record the value in %, omitting the unit from your answer.

Cc1ccccc1CN(c1ccc(C(=O)N2CCc3ccccc3C2)cc1)S(C)(=O)=O | -40.7
CCCc1[nH]nc2c1C(c1cccc(OC)c1)C(C#N)=C(N)O2 (centres undefined) | -46.3

-- ask Item Fc1ccccc1CSc1nnnn1-c1ccc2c(c1)OCO2 : provide inhibition
-- reply 13.8

-- ask Item COc1ccc(C(c2nnnn2C2CCCC2)N2CCC(C(N)=O)CC2)c(OC)c1 (centres undefined) : provide inhibition
-- reply -65.7

-- ask Item O=C(CCCCCN1C(=O)c2ccccc2C1=O)Nc1ccc(S(=O)(=O)N2CCCCC2)cc1 : provide inhibition
-- reply 8.2

-- ask Item O=C(CSc1nnc(Cn2nnc3ccccc32)o1)N(Cc1ccc(F)cc1)c1ccccc1 : provide inhibition
-- reply 2.6

-- ask Item O=C(N1CCOCC1)N1CCC(n2nnc3cc(F)ccc32)CC1 : provide inhibition
-- reply -19.8

-- ask Item CCCCn1cc(C(=O)c2cc(Br)ccc2O)cc(C#N)c1=O : provide inhibition
-- reply -1.5

-- ask Item CCn1ncc(Br)c1C(=O)N(C)C12CC3CC(CC(C3)C1)C2 : provide inhibition
-- reply -9.1
